Entry source: PubChem BioAssay (NCATS)

# Tested on: DFO2036
# assay overview: qHTS profiling for inhibitors of Plasmodium falciparum proliferation (AID 504749); further: nearly all actives have a fitted effect of over 60% in size
# condition notes: P. falciparum in erythrocytes, SYBR Green DNA, 72 h; series mostly up to 28.7 µM
Results filed as inconclusive are left out. Active and inactive are the calls of the source. The call rests on the fitted dose curve; in most records, active means well fitted inhibition curve with a large enough effect; inconclusive means small, poorly fitted or top-dose-only effect; inactive means flat fitted curve, though single readings scatter.
Outcomes: active, inactive

CC(/C=C/C=C(\C)C(=O)O[C@@H]1O[C@H](CO[C@@H]2O[C@H](CO)[C@@H](O)[C@H](O)[C@H]2O)[C@@H](O)[C@H](O)[C@H]1O)=C\C=C\C=C(C)\C=C\C=C(/C)C(=O)O[C@@H]1O[C@H](CO[C@@H]2O[C@H](CO)[C@@H](O)[C@H](O)[C@H]2O)[C@@H](O)[C@H](O)[C@H]1O ... inactive
O.O.O.O.O.O.O.O=S(=O)([O-])[O-].[Co+2] ... active
OCCOCCOCCO ... inactive
CCCCCCOC(=O)c1cccnc1 ... inactive
CC(C)NCC(O)COc1ccccc1-n1cccc1 (centres undefined) ... inactive
CC1(C)S[C@@H]2[C@H](NC(=O)C3(N)CCCCC3)C(=O)N2[C@H]1C(=O)O ... inactive
CC(=O)Nc1ccc(OC(C)=O)cc1 ... inactive
CCCOc1cc(N)ccc1C(=O)OCCN(CC)CC ... inactive
CCCCC(CC)CCC(CC(C)C)OS(=O)(=O)O (centres undefined) ... inactive
CC(C)Cc1ccc([C@@H](C)C(=O)NS(C)(=O)=O)cc1 ... inactive
CN1CCc2c(c3ccccc3n2Cc2ccccc2)C1 ... inactive
OCC1(CO)COC(C(Cl)(Cl)Cl)OC1 ... inactive
C[C@H](CCCC(C)(C)O)[C@H]1CC[C@H]2[C@@H]3CC=C4C[C@@H](O)CC[C@]4(C)[C@H]3CC[C@]12C ... inactive
CC(O)CN(C)C (centres undefined) ... inactive
C[C@]12CC[C@@H]3c4ccc(OC(=O)c5ccccc5)cc4CC[C@H]3[C@@H]1CC[C@@H]2O ... inactive
CN1C(=O)OC(C)(C)C1=O ... inactive
CC(=O)Oc1cccc2c1C(=O)c1c(OC(C)=O)cc(C(=O)O)cc1C2=O ... inactive
CC(C)OC(=O)Nc1ccc2nc(-c3cscn3)[nH]c2c1 ... inactive
O=C(O)COc1ccc(CCNS(=O)(=O)c2ccccc2)s1 ... inactive
O=P(O)(O)OP(=O)(O)O ... inactive
CCCCCc1ccc(C)cc1O ... inactive
C[C@H](N)C(=O)N[C@@H](C)P(=O)(O)O ... inactive
CC(=O)Nc1ccc(OC(=O)c2ccccc2O)cc1 ... inactive
NC(=O)[C@@H]1CCCN1C(=O)[C@H](Cc1cnc[nH]1)NC(=O)[C@@H]1CCC(=O)N1 ... inactive
CC(C)[C@@H](N)C(=O)O ... inactive
CCOC(=O)[C@@H](N)CS ... inactive
CC1CCCCN1CCCOC(=O)c1ccccc1 (centres undefined) ... inactive
COc1cc(NCCCC(C)N)c2ncccc2c1 (centres undefined) ... active
CN1c2c(nc(N)[nH]c2=O)NCC1CNc1ccc(C(=O)NC(CCC(=O)O)C(=O)O)cc1 (centres undefined) ... inactive
CC(=O)N[C@@H]1C(O[C@H]2O[C@H](C(=O)O)C(O)[C@H](O)[C@H]2O)[C@H](O)[C@@H](CO)O[C@H]1O[C@@H]1C(C(=O)O)O[C@@H](O[C@H]2[C@H](O)[C@@H](CO)OC(O)[C@@H]2NC(C)=O)[C@H](O)[C@H]1O (some centres undefined) ... inactive
NCC[C@H](O)C(=O)N[C@@H]1C[C@H](N)[C@@H](O[C@H]2O[C@H](CN)CC[C@H]2N)[C@H](O)[C@H]1O[C@H]1O[C@H](CO)[C@@H](O)[C@H](N)[C@H]1O ... inactive
CCCCC[C@H](O)/C=C/[C@@H]1[C@H]2C/C(=C/CCCC(=O)O)O[C@H]2C[C@H]1O ... inactive
C[C@H](CCC(=O)O)[C@H]1CC[C@H]2[C@@H]3CC[C@@H]4C[C@H](O)CC[C@]4(C)[C@H]3C[C@H](O)[C@]12C ... inactive
Oc1cc(O)cc(O)c1 ... inactive
CC(=O)[O][Al][O]C(C)=O ... inactive
CN1C(=O)C[C@@H](C(=O)N[C@@H](Cc2cnc[nH]2)C(=O)N2CCC[C@H]2C(N)=O)NC1=O ... inactive
NCC(O)CC(=O)O (centres undefined) ... inactive
S=C1SCN(Cc2ccccc2)CN1Cc1ccccc1 ... inactive
CC(=O)Nc1c(I)c(C(=O)O)c(I)c(N(C)C(C)=O)c1I ... inactive
Cc1ccc(S(=O)(=O)O)cc1C ... inactive
FC(F)(F)C(F)(F)C(F)(F)C(F)(F)C(F)(F)F ... inactive
O=C(OC1C[C@@H]2CC3C[C@H](C1)N2CC3=O)c1c[nH]c2ccccc12 (some centres undefined) ... inactive
Cc1ncc(C[n+]2csc(CCOP(=O)(O)O)c2C)c(N)n1 ... inactive
O=C(Nc1ccc(O)cc1)c1ccccc1O ... inactive
